- Test system: RPMI-8226 leukemia
- Assay method text: NCI tumour cell line growth inhibition, 48 h
Observed property: TGI

                                    compound  observed_property    result
 0  CC(C)=CCC[C@]1(C)CC[C@]2(C)C3CCC(=C(C)C)[C@@H](CCCO)[C@]3(C)CC[C@@]2(C)C1 (some centres not stated)                TGI  > 100 µM
 1  CCN1CC2=C(N=c3s/c(=C\c4ccc(Cl)cc4)c(=O)n3C2c2ccc(Cl)cc2)/C(=C/c2ccc(Cl)cc2)C1 (configuration not stated)                TGI  > 100 µM
 2  CCNC(=O)C[C@@H]1N=C(c2ccc(Cl)cc2)c2cc(OC)ccc2-n2c(C)nnc21                TGI   5.74 µM
 3  CN1CCN(Cc2ccc(-c3cc4ncnc(Nc5ccc(OCc6cccc(F)c6)c(Cl)c5)c4s3)o2)CC1                TGI   9.52 µM
 4  CC(=O)Nc1ccc(/C=C(\NC(=O)c2ccccc2)c2nc3ccc4c(c3[nH]2)C(=O)c2ccccc2C4=O)cc1                TGI  > 100 µM
 5                  CSC(=S)c1ccc(C(=S)SC)cc1                TGI  > 100 µM
 6  CC[C@@H]1C[C@@H]2CN3CCc4c([nH]c5ccc(OC)cc45)C(COC(=O)c4ccc(OC)c(OC)c4)(C2)C13                TGI   86.4 µM
 7     CN(C)c1ccc(-c2cc(=O)c3ccccc3[nH]2)cc1                TGI  > 100 µM
 8  O=C(O)c1ccc(S(=O)(=O)c2ccccc2)c([N+](=O)[O-])c1                TGI  > 100 µM
 9    Cn1cc(C(=O)c2nccc3c2cnc2ccccc23)ccc1=O                TGI  > 100 µM
10  CCOC(=O)C1(C(=O)OCC)C[C@]23OCCC(=O)[C@H]2[C@H]2C(=O)OC(C)(C)O[C@]23C1                TGI  > 100 µM
11  Cc1ccc(NC(c2ccccc2)c2ccc3cccnc3c2O)cc1 (configuration not stated)                TGI   19.2 µM

====

- Tested on: M14 melanoma
- Assay method text: NCI tumour cell line growth inhibition, 48 h
Quick reference for TGI among some compounds
Observed property: TGI

In [3]: df
Out[3]:
                                   compound  system_under_test  observed_property    result
0               CCOC(=N)CC(=O)Nc1ccc(Cl)cc1       M14 melanoma                TGI  > 100 µM
1  CCOC(=O)CC(=O)NC1CC2CCC1(C)C2(C)C (centres undefined)       M14 melanoma                TGI  > 100 µM
2       COc1cc2oc(=O)cc(C)c2cc1[N+](=O)[O-]       M14 melanoma                TGI   37.9 µM
3  CC1=C(C)C(=O)c2c(c(C(=O)c3ccccc3)c3nc4ccccc4n3c2C)C1=O       M14 melanoma                TGI  > 100 µM

====

Each entry below lists one item and its recorded TGI value.
- Tested on: CAKI-1 renal
- Assay method text: NCI tumour cell line growth inhibition, 48 h
Observed property: TGI

>>> df
                                   compound  system_under_test  observed_property     result
0  COc1ccc(C(=O)Cn2c(C(=O)c3ccc(Cl)cc3)nc3ccccc32)cc1       CAKI-1 renal                TGI   > 100 µM
1  CCOC(=O)C1(C(=O)OCC)C[C@]23OCCC(=O)[C@H]2[C@H]2C(=O)OC(C)(C)O[C@]23C1       CAKI-1 renal                TGI   > 100 µM
2  Oc1c(CN2CCC(N3CCOCC3)CC2)cc(Cc2cc(CN3CCC(N4CCOCC4)CC3)c(O)c3ncccc23)c2cccnc12       CAKI-1 renal                TGI    21.2 µM
3  COc1ccc(C(=O)Cn2c(C(=O)c3ccc(OC)cc3)nc3ccccc32)cc1       CAKI-1 renal                TGI   > 100 µM
4       COc1cc2oc(=O)cc(C)c2cc1[N+](=O)[O-]       CAKI-1 renal                TGI  > 51.5 µM
5      COC(=O)c1c[nH]cc1CCc1c[nH]cc1C(=O)OC       CAKI-1 renal                TGI   > 100 µM
6  CC(=O)N=C(N=Nc1c(O)[nH]c2ccc(C)cc12)NC(C)=O       CAKI-1 renal                TGI   > 100 µM
7  Cc1ccc(-c2c(C#N)c(-c3ccc(Cl)cc3)c(C#N)c(=O)n2NS(=O)(=O)c2ccccc2)cc1       CAKI-1 renal                TGI   > 100 µM
8  COc1ccc2c(c1)C(N)CC2=O (stereo not given)       CAKI-1 renal                TGI   > 100 µM
9          C/C(=N\NC(=S)N1CCCCCC1)c1nccnc1C       CAKI-1 renal                TGI   > 100 µM

====

- Tested on: SF-268 CNS
- Assay method text: NCI tumour cell line growth inhibition, 48 h
Reported GI50 by item:
Observed property: GI50

In [3]: df
Out[3]:
                            compound_smiles     result
0  O=[N+]([O-])c1cnc(Sc2ccncn2)c([N+](=O)[O-])c1      16 µM
1  CCCCCCCCCCCCN1C(C)=CS/C1=C\C=C\c1scc(C)[n+]1CCCCCCCCCCCC    1.98 µM
2  CC/C=C\C[C@H](O)C/C=C1/C(=O)C=C[C@@H]1C/C=C\CCCC(=O)NC(C)C       3 µM
3  CCNC(=O)C[C@@H]1N=C(c2ccc(Cl)cc2)c2cc(OC)ccc2-n2c(C)nnc21  > 53.6 µM
4  CCc1ccc(-c2nnc(COc3ccc(-c4nc5ccc(C)cc5[nH]4)cc3OC)o2)cc1    4.47 µM

====

- Tested on: DMS 114 small cell lung
- Assay method text: NCI tumour cell line growth inhibition, 48 h
Observed property: TGI

In [3]: df
Out[3]:
                                   compound        system_under_test    result
0  O=C1NC(=O)C(C(=O)C(=O)Nc2ccc(Br)cc2)C(=O)N1  DMS 114 small cell lung  > 100 µM
1             CC(=O)N1CCC2(C=Nc3ccccc32)CC1  DMS 114 small cell lung  > 100 µM
2         CCN1C(=O)C/C(=C\C(C)=O)Nc2ccccc21  DMS 114 small cell lung  > 100 µM
3  CC(=O)Nc1ccc(/C=C(\NC(=O)c2ccccc2)c2nc3ccc4c(c3[nH]2)C(=O)c2ccccc2C4=O)cc1  DMS 114 small cell lung  > 100 µM
4  COC(=O)C1(C)C=C(Nc2ccccc2)C(=O)N1c1ccccc1 (stereo not given)  DMS 114 small cell lung  > 100 µM

====

- System: IGROV1 ovarian
- Assay method text: NCI tumour cell line growth inhibition, 48 h
Observed property: TGI

Compound	Observed property	Result
O=C(O)CC(C(=O)O)c1ccccc1[N+](=O)[O-] (centres undefined)	TGI	> 100 µM
COc1cccc(N2C(=O)c3c(c4[nH]c5ccccc5c4c4ccc(C(C)(C)C)cc34)C2=O)c1	TGI	> 100 µM
C/C(=N/NC(=S)Nc1ccccc1Cl)c1ccccn1	TGI	13.9 µM
C[C@]12CC[C@@H]3c4ccc(O)cc4CC[C@H]3[C@@H]1C/C(=C\c1ccc([N+](=O)[O-])cc1)C2=O	TGI	> 100 µM
CC1C(c2ccc(F)cc2)c2cc3c(cc2OC1N1CCCC1)OCO3 (centres undefined)	TGI	> 100 µM
COC(=O)C1(C)C=C(Nc2ccccc2)C(=O)N1c1ccccc1 (centres undefined)	TGI	> 100 µM
O=C(Nc1ccc(Cl)c(C(F)(F)F)c1)C(=O)C(C(=O)/C=C/c1ccccc1)C1OC(=O)c2ccccc21 (centres undefined)	TGI	> 100 µM
O=C(O)c1ccc(S(=O)(=O)c2ccccc2)c([N+](=O)[O-])c1	TGI	> 100 µM
COc1cc2oc(=O)cc(C)c2cc1[N+](=O)[O-]	TGI	> 84.8 µM
CN1CCN(Cc2ccc(-c3cc4ncnc(Nc5ccc(OCc6cccc(F)c6)c(Cl)c5)c4s3)o2)CC1	TGI	8.34 µM
CC1=CC=NN2C(=O)[C@H](C)C2C1 (some centres undefined)	TGI	> 100 µM
CC1=C(/C=C/C(C)=C/C=C/C(C)=C/C(=O)OCC2OC(n3cc(F)c(=O)[nH]c3=O)CC2OC(=O)/C=C(C)/C=C/C=C(C)/C=C/C2=C(C)CCCC2(C)C)C(C)(C)CCC1 (centres undefined)	TGI	20 µM
Cn1c(=O)oc2cc(C(=O)CSC(=S)N3CCCCCC3)ccc21	TGI	> 100 µM
CCOP(=O)(OCC)C(NC(=O)OCC(Cl)(Cl)Cl)n1nnc(C(=O)OC)c1C(=O)OC (centres undefined)	TGI	> 100 µM
CSC(=S)c1ccc(C(=S)SC)cc1	TGI	> 100 µM
CC(=O)ON(OC(C)=O)c1ccc(C)cc1	TGI	> 100 µM
O=C(OCCN=C1c2ccccc2CCc2ccccc21)c1cc([N+](=O)[O-])cc([N+](=O)[O-])c1	TGI	> 31.6 µM
Cc1ccc2c(c1)SSSSS2	TGI	40.8 µM
Cc1ccc(S(=O)(=O)N/N=C(\CCN2CCCC2)CC(c2ccccc2)c2c(O)c3ccccc3oc2=O)cc1 (centres undefined)	TGI	> 100 µM
CCC1(C)C=Cc2c(cc(OC)c3c(=O)c4ccccc4n(C)c23)O1 (centres undefined)	TGI	> 10 µM
CC(C)(C)NNC(=O)/C(=C/c1ccc(Oc2ccc(Cl)c(Cl)c2)cc1)NC(=O)c1ccccc1	TGI	> 100 µM
O=C(Cn1c(=O)ccn(C2OC(CO)C(O)C2F)c1=O)c1ccc(F)cc1 (centres undefined)	TGI	> 100 µM
Cc1ccc(Nc2nc(=S)[nH]c3[nH]ncc23)cc1	TGI	> 100 µM
CCOc1c2ccsc2c(OCC)c2ccsc12	TGI	> 100 µM
COc1ccc(/C=C2\C=Cc3ccccc32)cc1OC	TGI	> 100 µM
CNc1ccccc1C(=O)N/N=C/C=C/c1ccccc1	TGI	> 100 µM
O=C(c1ccccc1)c1ccc(C(c2c(O)c3ccccc3oc2=O)c2c(O)c3ccccc3oc2=O)cc1	TGI	> 60.9 µM
O=C(CCN1CCN(c2cccc(Cl)c2)CC1)N1CCc2c([nH]c3ccccc23)C1c1cccnc1 (centres undefined)	TGI	> 100 µM
CN(C)c1nc(N(C)C)nc(N(C)C)n1	TGI	> 135 µM

The origin of these recorded values is PubChem BioAssay (NCI).
